# Activity per record follows
study_system: Beta-carbonic anhydrase 1 (Mycobacterium tuberculosis) (UniProt P9WPJ7)
Sequence (whole entry): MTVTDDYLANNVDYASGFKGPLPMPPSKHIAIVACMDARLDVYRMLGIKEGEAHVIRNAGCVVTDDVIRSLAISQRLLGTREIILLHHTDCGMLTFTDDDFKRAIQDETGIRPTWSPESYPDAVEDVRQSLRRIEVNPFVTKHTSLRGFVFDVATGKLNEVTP
assay_overview: Inhibition of recombinant Mycobacterium tuberculosis Rv1284 expressed in Escherichia coli BL21-Al cells assessed as enzyme residual activity at 25 uM measured for 10 secs by m-cresol purple staining based stopped-flow CO2 hydration assay relative to control
parameter_measured: Activity

compound=Clc1cc2ccccc2cc1Cl parameter_measured=Activity value_reported=80.3%
compound=CN(C)CCCNC1=C(Cl)C(=O)c2ccccc2C1=O parameter_measured=Activity value_reported=79.4%
compound=O=C1C(Cl)=C(NCc2ccccc2)C(=O)c2ccccc21 parameter_measured=Activity value_reported=96.5%
compound=COC1=CC(=O)c2ccccc2C1=O parameter_measured=Activity value_reported=62.3%
compound=O=C1C=CC(=O)c2ccccc21 parameter_measured=Activity value_reported=76.6%
compound=COC1=CC(=O)C=C(CO)C1=O parameter_measured=Activity value_reported=101%
compound=O=C1C2=C(C(=O)c3ccccc31)S(=O)(=O)C=CN2 parameter_measured=Activity value_reported=74.6%

----------
# deltaTm per record follows
study_system: Beta-carbonic anhydrase 1 (Mycobacterium tuberculosis) (UniProt P9WPJ7)
assay_overview: Binding affinity to recombinant Mycobacterium tuberculosis Rv1284 expressed in Escherichia coli BL21-Al cells assessed as change in melting temperature by SYPRO Orange dye based differential scanning fluorimetric method
parameter_measured: deltaTm (K)

compound=O=C1C(O)=C([C@H]2CC[C@H](c3ccc(Cl)cc3)CC2)C(=O)c2ccccc21 parameter_measured=deltaTm value_reported=-0.5
compound=O=C1C(Cl)=C(NCCc2ccccc2)C(=O)c2ccccc21 parameter_measured=deltaTm value_reported=-0.7
compound=O=C1C=CC(=O)c2ccccc21 parameter_measured=deltaTm value_reported=-8.8

----------
# Activity per record follows
study_system: Carbonic anhydrase 2 (Mycobacterium tuberculosis)
Sequence (whole entry): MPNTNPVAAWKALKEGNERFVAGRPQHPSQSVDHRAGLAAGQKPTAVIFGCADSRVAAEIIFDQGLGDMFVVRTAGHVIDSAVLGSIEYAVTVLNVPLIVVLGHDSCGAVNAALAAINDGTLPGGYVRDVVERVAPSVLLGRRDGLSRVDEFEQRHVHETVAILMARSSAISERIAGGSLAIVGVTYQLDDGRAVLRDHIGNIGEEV
assay_overview: Inhibition of recombinant Mycobacterium tuberculosis N-terminal Hi-tagged Rv3588c expressed in Escherichia coli BL21-Al cells assessed as enzyme residual activity at 25 uM measured for 10 secs by m-cresol purple staining based stopped-flow CO2 hydration assay relative to control
parameter_measured: Activity (%)

compound=COC1=CC(=O)c2ccccc2C1=O study_system="Carbonic anhydrase 2 (Mycobacterium tuberculosis)" value_reported=84.5
compound=O=C1C2=C(C(=O)c3ccccc31)S(=O)(=O)C=CN2 study_system="Carbonic anhydrase 2 (Mycobacterium tuberculosis)" value_reported=78.3
compound=COC1=CC(=O)C=C(CO)C1=O study_system="Carbonic anhydrase 2 (Mycobacterium tuberculosis)" value_reported=104
compound=CCN(CC)CCCNC1=C(Cl)C(=O)c2ccccc2C1=O study_system="Carbonic anhydrase 2 (Mycobacterium tuberculosis)" value_reported=93.8
compound=O=C1C=C(Br)C(=O)c2ccccc21 study_system="Carbonic anhydrase 2 (Mycobacterium tuberculosis)" value_reported=68.1
compound=O=C1C(O)=C([C@H]2CC[C@H](c3ccc(Cl)cc3)CC2)C(=O)c2ccccc21 study_system="Carbonic anhydrase 2 (Mycobacterium tuberculosis)" value_reported=80.7
compound=Clc1cc2ccccc2cc1Cl study_system="Carbonic anhydrase 2 (Mycobacterium tuberculosis)" value_reported=82.8
compound=COCCNC1=C(Cl)C(=O)c2ccccc2C1=O study_system="Carbonic anhydrase 2 (Mycobacterium tuberculosis)" value_reported=98.8
compound=O=C1C2=C(C(=O)c3ccccc31)S(=O)(=O)CCN2 study_system="Carbonic anhydrase 2 (Mycobacterium tuberculosis)" value_reported=80.6
compound=O=C1C=CC(=O)c2ccccc21 study_system="Carbonic anhydrase 2 (Mycobacterium tuberculosis)" value_reported=94.8
compound=CC(C)CCNC1=C(Cl)C(=O)c2ccccc2C1=O study_system="Carbonic anhydrase 2 (Mycobacterium tuberculosis)" value_reported=103
compound=O=C1C(Cl)=C(Cl)C(=O)c2ccccc21 study_system="Carbonic anhydrase 2 (Mycobacterium tuberculosis)" value_reported=16.1

----------
# Activity per record follows
study_system: Carbonic anhydrase 2 (Mycobacterium tuberculosis) (UniProt P9WPJ9)
assay_overview: Inhibition of recombinant Mycobacterium tuberculosis N-terminal Hi-tagged Rv3588c expressed in Escherichia coli BL21-Al cells assessed as enzyme residual activity at 25 uM measured for 10 secs by m-cresol purple staining based stopped-flow CO2 hydration assay relative to control
parameter_measured: Activity

compound=CN(C)CCCNC1=C(Cl)C(=O)c2ccccc2C1=O value_reported=110%
compound=O=C1C(Cl)=C(NCc2ccccc2)C(=O)c2ccccc21 value_reported=99.1%
compound=O=C1C(Cl)=C(NCCc2ccccc2)C(=O)c2ccccc21 value_reported=93.2%

----------
# deltaTm per record follows
study_system: UniProt P9WPJ7
Sequence (whole entry): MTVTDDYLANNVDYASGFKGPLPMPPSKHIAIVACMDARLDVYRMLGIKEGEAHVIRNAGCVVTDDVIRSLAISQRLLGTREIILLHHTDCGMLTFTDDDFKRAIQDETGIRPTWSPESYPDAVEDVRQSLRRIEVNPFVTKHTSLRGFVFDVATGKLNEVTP
assay_overview: Binding affinity to recombinant Mycobacterium tuberculosis Rv1284 expressed in Escherichia coli BL21-Al cells assessed as change in melting temperature by SYPRO Orange dye based differential scanning fluorimetric method
parameter_measured: deltaTm (K)

compound=O=C1C=C(Br)C(=O)c2ccccc21 study_system="UniProt P9WPJ7" value_reported=-10.1
compound=O=C1C(Cl)=C(NCc2ccccc2)C(=O)c2ccccc21 study_system="UniProt P9WPJ7" value_reported=-2.5
compound=CCN(CC)CCCNC1=C(Cl)C(=O)c2ccccc2C1=O study_system="UniProt P9WPJ7" value_reported=-0.6
compound="COC1=CC(=O)c2ccccc2C1=O [2-Methoxy-1,4-naphthoquinone]" study_system="UniProt P9WPJ7" value_reported=-0.5
compound=COCCNC1=C(Cl)C(=O)c2ccccc2C1=O study_system="UniProt P9WPJ7" value_reported=-1.5
compound=COC1=CC(=O)C=C(CO)C1=O study_system="UniProt P9WPJ7" value_reported=0.1
compound=O=C1C2=C(C(=O)c3ccccc31)S(=O)(=O)C=CN2 study_system="UniProt P9WPJ7" value_reported=-1.1
compound="O=C1C(Cl)=C(Cl)C(=O)c2ccccc21 [Dichlon]" study_system="UniProt P9WPJ7" value_reported=-10.2
compound=CN(C)CCCNC1=C(Cl)C(=O)c2ccccc2C1=O study_system="UniProt P9WPJ7" value_reported=-0.9
compound=CC(C)CCNC1=C(Cl)C(=O)c2ccccc2C1=O study_system="UniProt P9WPJ7" value_reported=-1.5
compound=Clc1cc2ccccc2cc1Cl study_system="UniProt P9WPJ7" value_reported=1.3
compound=O=C1C2=C(C(=O)c3ccccc31)S(=O)(=O)CCN2 study_system="UniProt P9WPJ7" value_reported=-0.4

----------
# pIC50 per record follows
study_system: UniProt:P9WPJ9
assay_overview: Inhibition of recombinant Mycobacterium tuberculosis N-terminal Hi-tagged Rv3588c expressed in Escherichia coli BL21-Al cells measured for 10 secs by m-cresol purple staining based stopped-flow CO2 hydration assay
pIC50: −log10 of the molar value.
parameter_measured: pIC50

compound=O=C1C(Cl)=C(Cl)C(=O)c2ccccc21 value_reported=5.92
compound=COC1=CC(=O)c2ccccc2C1=O value_reported=5.64

----------
study_system: Beta-carbonic anhydrase 1 (Mycobacterium tuberculosis)
assay_overview: Inhibition of recombinant Mycobacterium tuberculosis Rv1284 expressed in Escherichia coli BL21-Al cells assessed as enzyme residual activity at 25 uM measured for 10 secs by m-cresol purple staining based stopped-flow CO2 hydration assay relative to control
# Activity per record follows
parameter_measured: Activity (%)

compound=O=C1C(Cl)=C(Cl)C(=O)c2ccccc21 quantity_unit=% value_reported=81.5
compound=CC(C)CCNC1=C(Cl)C(=O)c2ccccc2C1=O quantity_unit=% value_reported=103
compound=O=C1C=C(Br)C(=O)c2ccccc21 quantity_unit=% value_reported=72.2
compound=CCN(CC)CCCNC1=C(Cl)C(=O)c2ccccc2C1=O quantity_unit=% value_reported=68.5
compound=COCCNC1=C(Cl)C(=O)c2ccccc2C1=O quantity_unit=% value_reported=67.2
compound=O=C1C(Cl)=C(NCCc2ccccc2)C(=O)c2ccccc21 quantity_unit=% value_reported=110
compound=O=C1C(O)=C([C@H]2CC[C@H](c3ccc(Cl)cc3)CC2)C(=O)c2ccccc21 quantity_unit=% value_reported=83.1
compound=O=C1C2=C(C(=O)c3ccccc31)S(=O)(=O)CCN2 quantity_unit=% value_reported=79.5
